System: Spodoptera litura
Assay: Insecticidal effect against Spodoptera litura, leaf spraying (Table 1, I)
Assay type: in vivo
Conditions: 0.4 ppm, wettable powder emulsion sprayed on soybean seedlings, third-instar larvae, 96 hours, read-out: mortality (I, spraying concn.)
value_kind: mortality at 0.4 ppm (%)

> print(dat)
                         structure.notation  numeric.value
1    O=C(NC(=O)c1c(F)cccc1F)Nc1ccc(I)c(F)c1              5
2      O=C(NC(=O)c1c(F)cccc1F)Nc1ccc(Cl)cc1             20
3  O=C(NC(=O)c1c(F)cccc1F)Nc1ccc(Cl)c(Cl)c1             20
4   O=C(NC(=O)c1c(F)cccc1F)Nc1ccc(Cl)c(F)c1             25
5  O=C(NC(=O)c1c(Cl)cccc1Cl)Nc1ccc(Cl)c(F)c1             20

###

Assay: Toxicity to fishes
Parameters: species or system Orizias latipes
Details: in vivo; 72 hours later, orange-red killifish; read-out: TLm (the concentration at which 50% of the test fish dies)
value_kind: LC50 at 72 h

> print(dat)
                      structure.notation    value.kind     result
1  O=C(NC(=O)c1c(F)cccc1F)Nc1ccc(Cl)cc1F  LC50 at 72 h  ≥ 10 mg/L
